Molecular target: T1, rat CRF binding protein C-terminally fused with a His6 sequence (rat) (UniProt P24388)
T1 sequence: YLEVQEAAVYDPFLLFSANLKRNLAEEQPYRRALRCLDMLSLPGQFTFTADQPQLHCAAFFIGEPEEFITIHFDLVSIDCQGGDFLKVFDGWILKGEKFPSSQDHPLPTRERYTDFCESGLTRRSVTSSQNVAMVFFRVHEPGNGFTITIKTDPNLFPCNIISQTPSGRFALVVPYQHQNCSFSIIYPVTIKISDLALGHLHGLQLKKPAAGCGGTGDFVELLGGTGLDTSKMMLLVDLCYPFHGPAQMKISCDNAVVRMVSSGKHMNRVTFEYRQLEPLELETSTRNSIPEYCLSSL
Assay: SPA competition with 0.1 nM [125I-Tyr0]h/rCRF, His-tagged rCRFBP; 95% CI (45-70)
Ends that are not written are not given here.
quantity: IC50 (nM)
Hi! Could you send only the number? It should be in nM, unit omitted.

Which IC50 reading was recorded for the binder QGPPISIDLSLELLRKMIEIEKQEKEKQQAANNRLLLDTI (ligand, ends and bridges not checked) [sauvagine] ?
57
